B1: INTS4 (parent)
chain: AKQIMEETYKMEFMYSGVENKQVV

Variants of: B1
Assay: protein stability index of a GFP-peptide fusion (GPS, HEK-293T) (PSI 1-6); higher = more stable;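 also: lentivirally expressed fusions sorted by FACS into six bins by GFP to DsRed ratio, PSI derived from sequencing read proportions per bin multiplied by bin number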
Conditions: c terminus: a fixed tail appended
Let's look at some variants and their measured protein stability index.
VALUE_TYPE: protein stability index

INSERT INTO measurements (variant_id, endpoint_value) VALUES
  ('V24D', 2.56),
  ('E12K', 1.59),
  ('E6Q', 1.77),
  ('T8H', 2.54),
  ('Y15R', 2.67),
  ('T8P', 3.46),
  ('F13D', 4.6),
  ('E7Y', 2.21),
  ('E19L', 1.2),
  ('M5V', 2.2),
  ('T8Q', 2.19),
  ('Y15K', 2.62),
  ('Y15A', 2.57),
  ('M11D', 4.33),
  ('M11P', 3.85),
  ('N20S', 1.44),
  ('T8N', 2.42),
  ('E6M', 3.07),
  ('M14A', 2.25),
  ('M14G', 2.43),
  ('Y9I', 2.02),
  ('M11A', 1.42);
